For each entry below, report its EC50 value.
Test system: HCV 1b replicon
method summary: HCV 1b replicon system, block of HCV replication
Type: cell-based
reported conditions: Hepatitis C virus, read-out: HCV Replicon EC50, HCV 1b replicon system
Dear colleague, please return just the value in nM, with no unit written.

Can you look up EC50 on HCV 1b replicon for `COC(=O)N[C@H](C(=O)N1CCC[C@H]1c1ncc(-c2ccc(-c3ccc(-c4cnc([C@@H]5CCCN5C(=O)[C@@H](NC(=O)OC)C(C)C)[nH]4)cc3)cc2)[nH]1)C(C)C` ?
0.0042

What reported EC50 corresponds to `COC(=O)N[C@H](C(=O)N1C[C@H](N=[N+]=[N-])C[C@H]1c1ncc(-c2ccc(-c3ccc(-c4[nH]c([C@@H]5C[C@@H](N=[N+]=[N-])CN5C(=O)[C@@H](NC(=O)OC)C(C)C)nc4Cl)cc3)cc2)[nH]1)C(C)C` on HCV 1b replicon?
0.0063

GET /values?readout=EC50&system=HCV 1b replicon&item= `COC(=O)N[C@H](C(=O)N1C[C@H](N=[N+]=[N-])C[C@H]1c1ncc(-c2ccc(-c3ccc(-c4cnc([C@@H]5C[C@@H](N=[N+]=[N-])CN5C(=O)[C@@H](NC(=O)OC)C(C)C)[nH]4)cc3)cc2)[nH]1)C(C)C`
0.0095

Fill in the recorded EC50 for this compound, with HCV 1b replicon as test system: `COC(=O)N[C@H](C(=O)N1CCC[C@H]1c1nc(-c2ccco2)c(-c2ccc(-c3ccc(-c4[nH]c([C@@H]5CCCN5C(=O)[C@@H](NC(=O)OC)C(C)C)nc4-c4ccco4)cc3)cc2)[nH]1)C(C)C`
0.026

Give recorded EC50 with HCV 1b replicon for the following compound: `COC(=O)N[C@H](C(=O)N1CCC[C@H]1c1ncc(-c2ccc(-c3ccc(-c4[nH]c([C@@H]5CCCN5C(=O)[C@@H](NC(=O)OC)C(C)C)nc4F)cc3)cc2)[nH]1)C(C)C`
0.0144

Identify the measured EC50 of `COC(=O)N[C@H](C(=O)N1CCC[C@H]1c1nc(-c2ccccc2)c(-c2ccc(-c3ccc(-c4[nH]c([C@@H]5CCCN5C(=O)[C@@H](NC(=O)OC)C(C)C)nc4-c4ccccc4)cc3)cc2)[nH]1)C(C)C` for HCV 1b replicon.
0.2

Give recorded EC50 with HCV 1b replicon for the following compound: `COC(=O)N[C@H](C(=O)N1C[C@@H](N=[N+]=[N-])C[C@H]1c1ncc(-c2ccc(-c3ccc(-c4cnc([C@@H]5C[C@H](N=[N+]=[N-])CN5C(=O)[C@@H](NC(=O)OC)C(C)C)[nH]4)cc3)cc2)[nH]1)C(C)C`
0.023

Give recorded EC50 with HCV 1b replicon for the following compound: `COC(=O)N[C@H](C(=O)N1CCC[C@H]1c1nc(-c2cccs2)c(-c2ccc(-c3ccc(-c4[nH]c([C@@H]5CCCN5C(=O)[C@@H](NC(=O)OC)C(C)C)nc4-c4cccs4)cc3)cc2)[nH]1)C(C)C`
0.1

# get_value(readout= EC50, system= HCV 1b replicon) for `COC(=O)N[C@H](C(=O)N1CCC[C@H]1c1nc(Cl)c(-c2ccc(-c3ccc(-c4[nH]c([C@@H]5CCCN5C(=O)[C@@H](NC(=O)OC)C(C)C)nc4Cl)cc3)cc2)[nH]1)C(C)C`
0.0064
